- Experiment: qHTS profiling of the MIPE4 collection as inhibitors of Plasmodium falciparum (3D7) proliferation (AID 743344);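 further: scaled between DMSO vehicle wells and 0.29 µM artemisinin as full inhibition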
- Test Settings: P. falciparum 3D7 in erythrocytes, SYBR Green DNA fluorescence, 72 h; at 28.5 µM unless noted
Overview of reported parasite growth, % of DMSO control across a group of compounds:

{"Compound": "COc1ccc(-c2coc3cc(O)cc(O)c3c2=O)cc1", "parasite growth, % of DMSO control / %": 36.9}
{"Compound": "Cc1ccccc1C(C(=O)NC1CCCCC1)N(C(=O)Cn1ccnc1C)c1cccc(F)c1 (stereo not drawn)", "parasite growth, % of DMSO control / %": 103}
{"Compound": "CC=CC[C@@H](C)C(=O)[C@H]1C(=O)N[C@@H](C(C)C)C(=O)N(C)CC(=O)N(C)[C@@H](CC(C)C)C(=O)N[C@@H](C(C)C)C(=O)N(C)[C@@H](CC(C)C)C(=O)N[C@@H](C)C(=O)N[C@H](C)C(=O)N(C)[C@@H](CC(C)C)C(=O)N(C)[C@@H](CC(C)C)C(=O)N(C)[C@@H](C(C)C)C(=O)N1C", "parasite growth, % of DMSO control / %": 90.9}
{"Compound": "COc1ncc(-c2ccc3nccc(-c4ccnnc4)c3c2)cc1NS(=O)(=O)c1ccc(F)cc1F", "parasite growth, % of DMSO control / %": 4.65}
{"Compound": "CC1(C)CCC[C@@]2(C)[C@@H]1CC[C@@]1(C)OC(=O)C[C@H]21", "parasite growth, % of DMSO control / %": 81.6}
{"Compound": "N[C@H](CSC(c1ccccc1)(c1ccccc1)c1ccccc1)C(=O)O", "parasite growth, % of DMSO control / %": 10.7}
{"Compound": "Cc1cnc(C(=O)O)c[n+]1[O-]", "parasite growth, % of DMSO control / %": 97}
{"Compound": "C=C1C(=O)OC2C=C(C)CCC=C(C)CCC12 (stereo not drawn)", "parasite growth, % of DMSO control / %": 238}

----------
- Experiment: qHTS profiling of the MIPE4 collection as inhibitors of Plasmodium falciparum (HB3) proliferation (AID 743347);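 further: plate controls were DMSO vehicle wells for no effect and artemisinin wells for full effect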
- Test Settings: P. falciparum HB3 in erythrocytes, SYBR Green DNA, 72 h; at 28.5 µM unless noted
Overview of reported growth, % of control across a group of compounds:

{"Compound": "COc1cccc([C@@H](C)NCCCc2ccccc2Cl)c1", "growth, % of control, %": 7.8}
{"Compound": "CCCCCN(C)CCC(O)(P(=O)(O)O)P(=O)(O)O", "growth, % of control, %": 90.7}
{"Compound": "OC[C@H]1O[C@@H](Oc2cc(O)cc(C=Cc3ccc(O)cc3)c2)[C@H](O)[C@@H](O)[C@H]1O", "growth, % of control, %": 83.3}
{"Compound": "O=C1NC(=O)C(=Cc2ccc3c(c2)OC(F)(F)O3)S1", "growth, % of control, %": 125}
{"Compound": "Cc1c(O)cccc1C(=O)N[C@@H](CSc1ccccc1)[C@H](O)CN1C[C@H]2CCCC[C@@H]2C[C@@H]1C(=O)NC(C)(C)C", "growth, % of control, %": 15.7}
{"Compound": "Cc1ccc(C(=O)Nc2cccc(C(F)(F)F)c2)cc1Nc1nc(-c2cccnc2)nc2c1cnn2C", "growth, % of control, %": 10.4}
{"Compound": "Nc1ncnc2ccccc12", "growth, % of control, %": 77}
{"Compound": "CC1CCC(C(=O)N(c2cc(C#CC(C)(C)C)sc2C(=O)O)C2CCC(O)CC2)CC1 (centres undefined)", "growth, % of control, %": 3.91}
{"Compound": "CC(=O)O[C@]1(C(C)=O)CC[C@@H]2[C@@H]3C[C@H](C)C4=CC(=O)CC[C@]4(C)[C@H]3CC[C@@]21C", "growth, % of control, %": 16.6}
{"Compound": "O=c1cc(-c2ccccc2)oc2cc(O)c(O)c(O)c12", "growth, % of control, %": 6.52}
{"Compound": "Nc1ncnc2c1nc(Cl)n2[C@@H]1O[C@H](CO)[C@@H](O)[C@@H]1O", "growth, % of control, %": 125}
{"Compound": "C[C@]12CCC3c4ccc(O)cc4CCC3C1CCC2=O (some centres undefined)", "growth, % of control, %": 66.9}
{"Compound": "NC(=O)c1cccc(-c2cc(Nc3ccc(OC(F)(F)F)cc3)ncn2)c1", "growth, % of control, %": 8.8}
{"Compound": "CC[C@]1(O)C[C@@H]2CN(CCc3c([nH]c4ccccc34)[C@@](C(=O)OC)(c3cc4c(cc3OC)N(C=O)[C@@H]3C45CCN4CC=C[C@](CC)([C@H]45)[C@@H](OC(C)=O)[C@]3(O)C(=O)OC)C2)C1 (some centres undefined)", "growth, % of control, %": 3.8}
{"Compound": "C=C1C(=O)[C@@]23C(CC[C@@H]1[C@H]2O)[C@@]12CO[C@]3(O)[C@@H](O)[C@@H]1C(C)(C)CC[C@@H]2O (some centres undefined)", "growth, % of control, %": 5.26}
{"Compound": "CC1(C)CCC2=C(O1)c1ccccc1C(=O)C2=O", "growth, % of control, %": 20.3}
{"Compound": "COc1ncc(-c2ccc3nccc(-c4ccnnc4)c3c2)cc1NS(=O)(=O)c1ccc(F)cc1F", "growth, % of control, %": 4.97}
{"Compound": "O=C1c2ccccc2-[n+]2ccc3c([nH]c4ccccc43)c21", "growth, % of control, %": 4.72}
{"Compound": "O=c1cc(-c2cccc3c2Sc2ccccc2S3)oc(N2CCOCC2)c1", "growth, % of control, %": 39.5}

----------
- Experiment: Quantitative High-Throughput drug screen in 47 multiple myeloma cell lines against the NCATS MIPE library collection: KMS12PE_JCRB cell viability assay (AID 1918972); further: nearly all actives have a fitted effect of over 30% in size;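 on viability: 100% = DMSO only wells and 0% = wells with media alone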
- Test Settings: KMS12PE myeloma viability, CellTiter-Glo ATP, 48 h; series mostly up to 45.8 µM
Inconclusive results are not listed. Calls of active or inactive are those of the source. The call rests on the fitted dose curve; in most records, active means well fitted cell-killing curve with a large enough effect; inconclusive means small, poorly fitted or top-dose-only effect, or effect the other way; inactive means no such curve, though single readings can be large or run the other way.
Labels: active, inactive

{"Compound": "CCCCCNC(=O)N1CCC(CN(Cc2ccc(Cl)cc2)Cc2ccc([N+](=O)[O-])s2)C1 (centres undefined)", "Assigned Class": "active"}
{"Compound": "O=C(OCC#CCSc1nnc(-c2cccc3ccccc23)o1)c1cc2ccccc2s1", "Assigned Class": "inactive"}
{"Compound": "CCOC(=O)O[C@]1(C(=O)OCCl)CC[C@@H]2[C@H]3CCC4=CC(=O)C=C[C@]4(C)[C@@H]3[C@@H](O)C[C@@]21C", "Assigned Class": "inactive"}
{"Compound": "Cc1ccccc1C(C(=O)NC1CCCCC1)N(C(=O)Cn1ccnc1C)c1cccc(F)c1 (centres undefined)", "Assigned Class": "active"}
{"Compound": "O=c1[nH]cnc2c1ncn2[C@H]1CC[C@@H](CO)O1", "Assigned Class": "inactive"}
{"Compound": "Oc1ccc(C2CCN(c3ccnc4ccccc34)CC2)cc1O", "Assigned Class": "active"}
{"Compound": "Nc1ncnc2c1ncn2[C@@H]1O[C@@H](CO)[C@H](O)[C@H]1O", "Assigned Class": "inactive"}
{"Compound": "CCC(=O)NC[C@H](Cc1ccc(OCCc2nc(-c3ccccc3)oc2C)cc1)NC(C)=CC(=O)c1ccc(C(F)(F)F)cc1", "Assigned Class": "active"}
{"Compound": "COc1ccc2cccc(CCNC(C)=O)c2c1", "Assigned Class": "inactive"}

----------
- Experiment: Cell Viability - LYMP2-019 (AID 973);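 further: cells exposed to compound for 24 h at 37 °C; nearly all actives have a fitted effect of over 55% in size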
- Test Settings: LYMP2-019 lymphoblastoid cell line viability; series mostly up to 92.2 µM
Results filed as inconclusive are left out. Activity calls are given as the source filed them. The call rests on the fitted dose curve; in most records, active means well fitted cell-killing curve with a large enough effect; inconclusive means small, poorly fitted or top-dose-only effect; inactive means flat fitted curve, though single readings scatter.
Labels: YES (active), NO (inactive)

{"Molecule": "O=C(O)Cc1cccc2ccccc12", "Assigned Class": "NO"}
{"Molecule": "CCCCC1C(=O)N(c2ccccc2)N(c2ccccc2)C1=O", "Assigned Class": "NO"}
{"Molecule": "CC1=C(/C=C/C(C)=C/C=C/C(C)=C/C(=O)Nc2ccc(O)cc2)C(C)(C)CCC1", "Assigned Class": "YES"}
{"Molecule": "CN(C)CCC(c1ccccc1)c1ccccn1 (stereo not drawn)", "Assigned Class": "NO"}
{"Molecule": "O=c1c(-c2ccc(O)cc2)coc2cc(O)ccc12", "Assigned Class": "NO"}
{"Molecule": "CCn1cc(C(=O)O)c(=O)c2ccc(C)nc21", "Assigned Class": "NO"}
{"Molecule": "CCCNC(=O)NS(=O)(=O)c1ccc(Cl)cc1", "Assigned Class": "NO"}
{"Molecule": "O=c1[nH]cnc2c1ncn2[C@H]1CC[C@@H](CO)O1", "Assigned Class": "NO"}
